Numbers sourced from PubChem BioAssay (NCI).

This listing pairs compounds with measured GI50.
Test system: SK-OV-3 ovarian
Assay: NCI tumour cell line growth inhibition, 48 h

{"compound": "CCCCNC(c1ccc(Cl)cc1)C(O)c1ccc(Cl)cc1 (stereo not given)", "GI50": "5.72 µM"}
{"compound": "CSc1nc(Nc2cccc(NC(=O)CCl)c2)c(C#N)c(-c2cccc([N+](=O)[O-])c2)n1", "GI50": "4.36 µM"}
{"compound": "COc1ccc2[nH]c(C(=O)N3CCN(C(=O)OCc4ccc5c(Cl)cc(Cl)c(O)c5n4)CC3)cc2c1", "GI50": "5.36 µM"}
{"compound": "CCOC(=O)NC(=S)N(CC(=O)c1cc(OC)c(OC)c(OC)c1)c1ccc(Cl)cc1", "GI50": "> 100 µM"}
{"compound": "O=C(Nc1sc2c(c1C(=O)O)CCCC2)c1ccco1", "GI50": "> 50 µM"}
{"compound": "OCc1ccc(N(Cc2ccc(F)cc2)Cc2ccc(F)cc2)cc1Cl", "GI50": "13.6 µM"}
{"compound": "COC1=CC(c2ccc[nH]2)=N/C1=C\\c1[nH]c(C)c(C(=O)CCCCCCCCC(=O)O[C@H]2CC[C@H]3C4CCc5cc(O)ccc5C4CC[C@]23C)c1C (stereo not given in full)", "GI50": "5.02 µM"}
{"compound": "COc1ccc(-c2ccc(OC)c(OC)c2OC)cc1", "GI50": "2.63 µM"}
{"compound": "CCCC(=O)O[C@]1(C)CC[C@@H]2[C@H]3[C@@H]1[C@@H]1C[C@@](C)(O)[C@H](OC)CC[C@](C)(OC(=O)[C@@H]2C)[C@H]3O1", "GI50": "31 µM"}
{"compound": "CC1=NN(c2cccc(Cl)c2)C(=O)/C1=C\\c1cn(CC(O)CN2CCCCC2)c2ccccc12 (stereo not given)", "GI50": "12.9 µM"}
{"compound": "Cn1c(I)c(C#C[Si](C)(C)C)c(=O)n(C(=O)c2ccccc2)c1=O", "GI50": "0.529 µM"}
{"compound": "CC1(C)CC(C)(C)c2cc(NC(=S)Nc3ccc([N+](=O)[O-])cc3)ccc2S1", "GI50": "16.5 µM"}
{"compound": "COc1ccc2c(c1)C(=O)c1c-2c(OCCCN(C)C)nc2cc(Br)ccc12", "GI50": "7.28 µM"}
{"compound": "Cn1c(COC(=O)NCCc2ccccn2)nc2c(N3CCOCC3)nc(Cl)nc21", "GI50": "12 µM"}
{"compound": "CCCCCCCC(=O)OCC/C=C/C1OC1C1OC(=O)/C=C\\C=C\\C(=O)N(C(C)=O)C(=O)/C=C(/C)CCC2OC2C1OC(=O)NC(C)=O (stereo not given)", "GI50": "> 25 µM"}

###

System: RXF 393 renal
Assay: NCI tumour cell line growth inhibition, 48 h; in the data active means GI50 below about 0.43 µM; inactive means the rest
Classes used: active, inactive

{"smiles representation": "COc1cc2c(/C=C3\\C(=O)Nc4ccccc43)c[nH]c2cc1C", "assigned category": "active"}
{"smiles representation": "NC(N)=N/N=C\\c1ccc(OCc2ccccc2)cc1", "assigned category": "inactive"}
{"smiles representation": "CCC[CH2][Sn-]([CH2]CCC)([CH2]CCC)[O]C(=O)C(C)C", "assigned category": "active"}

###

Test system: SNB-75 CNS
Assay: NCI tumour cell line growth inhibition, 48 h
This listing pairs compounds with measured TGI.

{"compound": "CC1=NN(C(=O)CC(=O)Nc2cccc(C)c2)C(=O)C1N=Nc1ccc(S(=O)(=O)CCOS(=O)(=O)O)cc1 (centres undefined)", "TGI": "19.7 µM"}
{"compound": "CC(C)(CO[C@H]1C[C@H]2CC[C@@]1(C)C2(C)C)[N+](=O)[O-]", "TGI": "45.1 µM"}
{"compound": "COC1CC(C)(NC(=O)C(F)(F)F)C2OC(c3ccccc3)OCC2O1 (centres undefined)", "TGI": "> 100 µM"}
{"compound": "CC(C)(C)C[C@H]1N[C@@H](C(=O)NC2CCC(O)CC2)[C@H](c2cccc(Cl)c2F)[C@@]12C(=O)Nc1cc(Cl)ccc12 (some centres undefined)", "TGI": "17.9 µM"}
{"compound": "Cc1ccc(C2=CC(=O)c3ccccc3C2=O)n1-c1ccccc1", "TGI": "> 100 µM"}
{"compound": "O=P1(N(CCCl)CCCl)Oc2ccc(Cl)cc2C(C(Cl)(Cl)Cl)c2cc(Cl)ccc2O1 (centres undefined)", "TGI": "37.9 µM"}
{"compound": "Nc1c(C(=O)c2ccc(Cl)c(Cl)c2)[nH]c(NCc2ccccc2)c1C(=S)Nc1ccccc1", "TGI": "24.1 µM"}
{"compound": "CCOC(=O)Nc1ccc2nc(-c3cscn3)[nH]c2c1", "TGI": "29.4 µM"}
{"compound": "CC1=NN(c2cccc(Cl)c2)C(=O)/C1=C\\c1cn(CC(O)CN2CCCCC2)c2ccccc12 (centres undefined)", "TGI": "21.1 µM"}

###

This listing pairs compounds with measured TGI.
Test system: HT29 colon
Assay: NCI tumour cell line growth inhibition, 48 h

{"compound": "COc1cccc2c1C(=O)c1c(O)c3c(c(O)c1C2=O)C[C@@](O)(C(C)=O)CC3OC1CC(OC2CC(N)C(O)C(C)O2)C(O)C(C)O1 (some centres undefined)", "target entity": "HT29 colon", "TGI": "> 100 µM"}
{"compound": "CCOc1ccc(NC(=O)/C(CC(=O)c2c[n+](=O)c3ccccc3n2[O-])=N\\OCCCc2ccccc2)cc1", "target entity": "HT29 colon", "TGI": "> 100 µM"}
{"compound": "C[s+]1c2ccccc2c2ccccc21", "target entity": "HT29 colon", "TGI": "> 100 µM"}
{"compound": "CC(C)Cc1cnc(CC(C)C)c(=O)[nH]1", "target entity": "HT29 colon", "TGI": "> 100 µM"}
{"compound": "COC1(CC[C@@H](C)COC2OC(CO)C(O)C(O)C2O)OC2C[C@H]3[C@@H]4CC[C@H]5C[C@@H](OC6OC(CO)C(OC7OC(CO)C(O)C(O)C7O)C(O)C6OC6OC(C)C(O)C(O)C6O)[C@H](O)C[C@]5(C)[C@H]4CC[C@]3(C)C2[C@@H]1C (some centres undefined)", "target entity": "HT29 colon", "TGI": "4.99 µM"}
{"compound": "CC(=O)CC1(CBr)Nc2ccc([N+](=O)[O-])cc2NC1=O (centres undefined)", "target entity": "HT29 colon", "TGI": "> 100 µM"}
{"compound": "CC(C)(C)C1CCC2c3c([nH]c4ccccc34)C3C(=O)N(c4ccc([N+](=O)[O-])cc4)C(=O)C3C2C1 (centres undefined)", "target entity": "HT29 colon", "TGI": "19.2 µM"}
{"compound": "COc1ccccc1NC(=O)C(=O)C(C(=O)c1ccccc1F)C1OC(=O)c2ccccc21 (centres undefined)", "target entity": "HT29 colon", "TGI": "62.5 µM"}
{"compound": "CN1CCCC2[C@@H]3CCC4c5nonc5CC[C@]4(C)C3CC[C@@]21C (some centres undefined)", "target entity": "HT29 colon", "TGI": "> 100 µM"}
{"compound": "COc1cc(CCNC2=CC(=O)c3nc[nH]c3C2=O)ccc1O", "target entity": "HT29 colon", "TGI": "53.9 µM"}
{"compound": "c1cnc2c(c1)-n1cccc1C1(CCCCC1)NN2", "target entity": "HT29 colon", "TGI": "> 100 µM"}
{"compound": "COC1(OC)C2(Cl)C3=CCCC=C3C1(Cl)C(Cl)=C2Cl", "target entity": "HT29 colon", "TGI": "84.3 µM"}
{"compound": "COc1cc2c[n+]3c4c(c2c(OC)c1OC)CCCC4CC3 (centres undefined)", "target entity": "HT29 colon", "TGI": "> 100 µM"}
{"compound": "CC(=O)Nc1ccc(C2CC(c3ccc([N+](=O)[O-])cc3)=Nc3ccccc3S2)cc1 (centres undefined)", "target entity": "HT29 colon", "TGI": "28.7 µM"}
{"compound": "C=C1c2nc3ccccc3n2C=C(c2ccc(C)cc2)N1c1ccc(OC)cc1", "target entity": "HT29 colon", "TGI": "> 91.2 µM"}
{"compound": "COc1cc(/C=N/NC(=O)c2cnn3c2NC(c2ccccc2)C3)ccc1OC1CCCC1 (centres undefined)", "target entity": "HT29 colon", "TGI": "8.55 µM"}
{"compound": "O=c1[nH]ccc(CNC23CC4CC(CC(C4)C2)C3)c1O", "target entity": "HT29 colon", "TGI": "> 100 µM"}
{"compound": "COc1ccc(-c2ccc(C3CC(c4ccccc4)=NN3)o2)c([N+](=O)[O-])c1 (centres undefined)", "target entity": "HT29 colon", "TGI": "> 100 µM"}
{"compound": "O=c1[nH]c(=O)n(COC(CO)CO)cc1-c1ccccc1", "target entity": "HT29 colon", "TGI": "> 100 µM"}
